Test system: 242566-281-R-J2-PDC complex spheroid viability;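 also: spheroids exposed to compound for 7 days before readout; 100% = DMSO vehicle control wells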
Test: Anticancer human tumor 242566-281-R-J2-PDC patient-derived pancreatic carcinoma cell line growth inhibition [RAS]
Conditions: second compound 1 µM; first compound 0.0949 µM; active compounds read low
Text: RAS pathway inhibitors in Combinations in Complex Spheroids A high-throughput screen of multi-cell type tumor spheroids was designed to identify active combinations of RAS pathway inhibitors and targeted small molecules. Complex spheroids include a stromal component modeled by human endothelial cells (HUVEC) and fibroblasts modeled by human mesenchymal stem cells (MSCs). […] Compounds. […] If the clinical Cmax for an agent had not been determined, the highest concentration tested was 10 microM. […]
quantity: viability, T/C (%)
Give bare numbers, in %.

Worked set:
| compound | quantity | number |
| --- | --- | --- |
| CCc1c2c(nc3ccc(O)cc13)-c1cc3c(c(=O)n1C2)COC(=O)[C@]3(O)CC + C#Cc1c(F)ccc2cc(O)cc(-c3ncc4c(N5CC6CCC(C5)N6)nc(OCC56CCCN5CC(F)C6)nc4c3F)c12 | viability, T/C | 29.5 |
| CC1(C)CCC(Nc2ncc(C(F)(F)F)c(-c3c[nH]c4c(P(C)(C)=O)c(C#N)ccc34)n2)CN1 (centres undefined) + C#Cc1c(F)ccc2cc(O)cc(-c3ncc4c(N5CC6CCC(C5)N6)nc(OCC56CCCN5CC(F)C6)nc4c3F)c12 | viability, T/C | 55.1 |
| CCc1c2c(nc3ccc(O)cc13)-c1cc3c(c(=O)n1C2)COC(=O)[C@]3(O)CC + C=CC(=O)N1CCN(c2nc(OCC3CCCN3C)nc3c(F)c(-c4nc(N)cc(C)c4C(F)(F)F)c(Cl)cc23)C(C)C1 | viability, T/C | 32.7 |

API: the following record is the query input.
Item under review: CC1(C)CCC(Nc2ncc(C(F)(F)F)c(-c3c[nH]c4c(P(C)(C)=O)c(C#N)ccc34)n2)CN1 (centres undefined) + C=CC(=O)N1CCN(c2nc(OCC3CCCN3C)nc3c(F)c(-c4nc(N)cc(C)c4C(F)(F)F)c(Cl)cc23)C(C)C1 . Reported viability, T/C?
128

# credit: PubChem BioAssay AID2060910
